# Tested on: rat aortic ring microvessel formation
# procedure summary: rat aortic ring model of angiogenesis (microvessel formation)
# Type: cell-based
# assay setup: 192 h; in vitro rat aortic rings, microvessel area after eight days in culture, compared to vehicle-treated control rings; read-out: IC50 (inhibition of microvessel formation, angiogenesis inhibitory activity)
pIC50: −log10 of the molar value.

{"molecular string": "Cc1nsc(-c2ccc(N3CCN(c4cccc(C(F)(F)F)c4)CC3)nc2)n1", "pIC50": "> 8.00"}
{"molecular string": "Cc1nsc(-c2ccc(N3CCN(c4cccc(C(F)(F)F)c4)CC3)cc2)n1", "pIC50": "> 8.00"}

Numbers sourced from patent US7208503B2.
